# System: HCT116;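 also: HCT116 colorectal carcinoma cells screened at five concentrations per compound, luminescent viability scaled between DMSO wells and empty wells on each plate, curves fitted per compound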
# assayMethodText: AC50 cell viability (CellTiter-Glo); higher = less potent
# particulars: 48 h
Counter-ions that a name gives are not always drawn.
measuredProperty: AC50 cell viability (µM)
// units = µM; emit number, no label

query: Item "FC(F)(F)c1ccc(Nc2nc(-c3c(C(F)(F)F)nc4ccccn34)cs2)cc1" has what recorded AC50 cell viability?
result: 0.332

query: Item "CCCCCC1=CC(=C([C@@H]2\C=C(C)/CC[C@H]2C(C)=C)C(=C1)O)O" has what recorded AC50 cell viability?
result: 20.9

query: Item "C[C@@H]1CN(Cc2ccc(F)cc2)CCN1C(=O)COc1ccc(Cl)cc1NC(N)=O" has what recorded AC50 cell viability?
result: 0.209

query: Item CC1(CN2CCC(n3c(=O)[nH]c4ccccc43)CC2)OCc2ccccc2-n2cccc21 (configuration not stated) [Zaldaride maleate] has what recorded AC50 cell viability?
result: 20.9

query: Item "CCOc1cc(C(=O)Nc2ccc(Cl)c(-c3nc4ccccc4[nH]3)c2)cc(OCC)c1OCC" has what recorded AC50 cell viability?
result: 2.63

query: Item "C[C@@H]1C[C@H]2[C@@H]3\C=C(C)/C4=C/C5=C(C[C@]4(C)[C@H]3[C@@H](O)C[C@]2(C)[C@@]1(O)C(=O)CO)C=N[N]5C6=CC=CC=C6" has what recorded AC50 cell viability?
result: 26.3

query: Item Nc1nc(F)nc2c1ncn2[C@@H]1O[C@H](COP(=O)(O)O)[C@@H](O)[C@@H]1O [Fludarabine phosphate] has what recorded AC50 cell viability?
result: 7.42
